# Target desc: T1, HER3-ECD-Fc (human, UniProt P21860 20-643, limits assumed)
# T1 construct: extracellular domain; also called HER3-FC; HER3-IgG
# Test summary: direct phage ELISA, proteins coated at 2 µg/ml, phage-Fab supernatant, OD450;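 further: specificity test of dual-activity clones, with binding assessed across an antigen panel to check whether each recognises only its cognate target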
Assay metric: binding result

Identify measured binding result associated with D1.5-113 (phage-displayed Fab clone) (Fab, V domains shown, EGFR/HER3 clone) VH: EVQLVESGGGLVQPGGSLRLSCAASGFTFTGNWIHWVRQAPGKGLEWVGEISPSGGYTDYADSVKGRFTISADTSKNTAYLQMNSLRAEDTAVYYCARESRVSYEAAMDYWGQGTLVTVSS VL: DIQMTQSPSSLSASVGDRVTITCRASQSLLASHDGTPWVAWYQQKPGKAPKLLIYDASYLYSGVPSRFSGSGSGTDFTLTISSLQPEDFATYYCQQSTFAPYTFGQGTKVEIKR binds

Identify measured binding result associated with D1.5-121 (phage-displayed Fab clone) (Fab, V domains shown, EGFR/HER3 clone) VH: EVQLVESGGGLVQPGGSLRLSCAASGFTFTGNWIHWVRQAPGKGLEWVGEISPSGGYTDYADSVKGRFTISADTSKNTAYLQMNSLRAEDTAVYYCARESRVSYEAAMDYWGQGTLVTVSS VL: DIQMTQSPSSLSASVGDRVTITCRASQDVGSDLAWYQQKPGKAPKLLIYSASYLYSGVPSRFSGSGSGTDFTLTISSLQPEDFATYYCQQSDPEPYTFGQGTKVEIKR binds

Identify measured binding result associated with D1.5-116 (phage-displayed Fab clone) (Fab, V domains shown, EGFR/HER3 clone) VH: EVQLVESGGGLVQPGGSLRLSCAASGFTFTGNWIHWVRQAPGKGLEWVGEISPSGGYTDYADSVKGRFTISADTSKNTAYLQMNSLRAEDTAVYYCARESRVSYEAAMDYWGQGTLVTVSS VL: DIQMTQSPSSLSASVGDRVTITCRASQAIASDVAWYQQKPGKAPKLLIYSASFLYSGVPSRFSGSGSGTDFTLTISSLQPEDFATYYCQQSEPEPYTFGQGTKVEIKR binds

The measurements presented in this section are drawn from patent US20120121596A1.
